# method.notes: AUC (0 to infinity) in ICR mouse at 10 mg/kg, po measured upto 24 hrs by LC-MS/MS analysis
# Format: ADME, organism-based
# measurement.parameters: in vivo
property.name: AUC(0-inf)

In [3]: df
Out[3]:
                                        smi  measured_result
0  CCNC(=O)[C@@H](C)[C@H]1CC[C@H]2[C@@H]3CC=C4C(C)(C)c5nnsc5C[C@]4(C)[C@H]3CC[C@]12C      688 ng·h/mL

* * *

# method.notes: Terminal elimination half life in ICR mouse at 10 mg/kg, po measured upto 24 hrs by LC-MS/MS analysis
# Type: ADME, organism-based
# measurement.parameters: in vivo, read-out: beta t1/2 (converted)
property.name: half-life (h)

                                        smi  units_of_measure  measured_result
0  CCNC(=O)[C@@H](C)[C@H]1CC[C@H]2[C@@H]3CC=C4C(C)(C)c5nnsc5C[C@]4(C)[C@H]3CC[C@]12C                 h             1.79
